Data origin: patent US20200138827A1

Consider the following compounds; for each one, report its pEC50.
Molecular target: WT/R232 STING protein (Homo sapiens, UniProt Q86WV6, H232R)
Sequence (Q86WV6 whole entry H232R): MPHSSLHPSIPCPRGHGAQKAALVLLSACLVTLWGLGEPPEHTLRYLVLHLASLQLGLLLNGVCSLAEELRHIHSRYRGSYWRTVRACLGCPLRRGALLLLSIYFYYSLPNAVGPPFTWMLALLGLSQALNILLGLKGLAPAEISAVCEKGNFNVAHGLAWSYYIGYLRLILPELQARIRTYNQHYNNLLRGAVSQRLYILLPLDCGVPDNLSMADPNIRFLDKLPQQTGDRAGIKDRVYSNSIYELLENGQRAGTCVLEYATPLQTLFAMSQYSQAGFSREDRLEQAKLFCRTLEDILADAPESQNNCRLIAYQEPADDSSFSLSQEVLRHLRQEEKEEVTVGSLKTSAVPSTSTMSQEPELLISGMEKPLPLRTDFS
Assay: Luciferase reporter assay in HEK293T-hSTING-Luciferase cells, WT/R232
Details: 20 hr stimulation, read-out: R232 Activity (EC50 range)
From the text: • a) Stable STING expressing cells—Stable HEK293T STING-expressing cell lines were generated using plasmids purchased from Invivogen, Calif., USA, that contain STING cDNA cloned into the pUNO-1 vector under hEF1-HTLV promoter and containing the Blasticidin selection cassette. […]
pEC50: −log10 of the molar value.

Here are 2 compounds together with their reported answers.
| COMPOUND | TESTED_SYSTEM | QUANTITY | VAL |
| --- | --- | --- | --- |
| O=C(NCc1c(F)cc(F)cc1F)c1ccc2c(c1)N(C(=O)c1ccncc1)CCS2 | WT/R232 STING protein (Homo sapiens, UniProt Q86WV6, H232R) | pEC50 | < 5.00 |
| O=C(NCc1ccco1)c1ccc2c(c1)N(Cc1ccc(Cl)cc1)C(=O)CS2 | WT/R232 STING protein (Homo sapiens, UniProt Q86WV6, H232R) | pEC50 | 5.00 to 6.00 |

Lab note: each compound below needs its pEC50 filled in.
1. Cc1cc2c(cc1C(=O)NCc1ccco1)N(Cc1ccccc1)C(=O)CS2
2. CC1Sc2ccc(C(=O)NCc3c(F)cc(F)cc3F)cc2N(Cc2ccncc2)C1=O (centres unmarked)
3. O=C(NCc1c(F)cc(F)cc1F)c1cnc2c(c1)N(Cc1cc(F)cc(F)c1)C(=O)CO2

1: < 5.00; 2: > 6.00; 3: < 5.00

Below is a list of compounds. For each, state its recorded pEC50.
1. O=C(NCc1ccc(F)cc1F)c1ccc2c(n1)N(Cc1ccc(F)cc1)C(=O)CC2
2. Cn1nccc1CNC(=O)c1ccc2c(c1)N(Cc1ccccc1)C(=O)CS2
3. N#Cc1ccc(CNC(=O)c2ccc3c(c2)N(Cc2ccccc2)C(=O)CS3)cc1

1. 5.00 to 6.00
2. < 5.00
3. 5.00 to 6.00

###

Biological target: WT/R232 STING protein (Homo sapiens, UniProt Q86WV6, H232R)
Experiment: Luciferase reporter assay in HEK293T-hSTING-Luciferase cells, WT/R232
Conditions: 20 hr stimulation, read-out: R232 Activity (EC50 range)
pEC50: −log10 of the molar value.
Record form. Attribute: pEC50. Fill in for each entry.

Example entries begin here.
| MOLECULE | pEC50 |
| --- | --- |
| Cc1ccc(CNC(=O)c2ccc3c(n2)N(Cc2cc(F)cc(F)c2)C(=O)C(C)S3)o1 (centres unmarked) [Example 190] | > 6.00 |
| O=C(NCc1ccco1)c1ccc2c(c1)N(Cc1ccccc1)CCS2 [Example 246] | < 5.00 |
| Cn1cc(CNC(=O)c2ccc3c(c2)N(Cc2ccccc2)C(=O)CS3)cn1 [Example 121] | < 5.00 |

Value sought for every listed molecule: pEC50.
1. O=C(NCC1CCN(c2ccccc2)CC1)c1ccc2c(c1)N(Cc1ccccc1F)C(=O)CS2 [Example 45]
2. O=C(NCc1ccccc1Cl)c1ccc2c(c1)N(Cc1ccccc1)C(=O)CS2 [Example 117]
3. N#Cc1cc(C(=O)NCc2ccco2)cc2c1SCC(=O)N2Cc1cc(F)cc(F)c1 [Example 220]
4. Cc1cccc(CNC(=O)c2ccc3c(c2)N(Cc2ccccc2)C(=O)CS3)c1 [Example 76]

1: < 5.00; 2: < 5.00; 3: < 5.00; 4: < 5.00

Your task in this section: give pEC50 for each listed record.
1. CCOC1Sc2ccc(C(=O)NCc3ccco3)cc2N(Cc2ccccc2F)C1=O (centres unmarked) [Example 137]
2. CC1Sc2ncc(C(=O)NCc3cnn(C)c3)cc2N(Cc2cc(F)cc(F)c2)C1=O (centres unmarked) [Example 216]

< 5.00
< 5.00

Hi team, please reply with pEC50 for each item in this list.
1. O=C(NCc1ccco1)c1cc2c(cc1Br)SCC(=O)N2Cc1ccccc1F [Example 228]
2. CC1Oc2ncc(C(=O)NCc3cccc(C(F)(F)F)c3)cc2N(Cc2c(F)cccc2Cl)C1=O (centres unmarked) [Example 244]
3. CC1Sc2ccc(C(=O)NCc3ccco3)nc2N(Cc2cc(F)cc(F)c2)C1=O (centres unmarked) [Example 189]
4. O=C(CN1C(=O)CSc2ccc(C(=O)NCc3ccco3)cc21)c1ccccc1 [Example 2]

< 5.00
< 5.00
> 6.00
< 5.00
